# Tested System: cynomolgus monkey CD3 E&D complex protein (Sino Biological Inc., CT032-00323H) (cynomolgus monkey) (UniProt Q95LI5)
# Sequence (Q95LI5 22-117, chain 1 of 2): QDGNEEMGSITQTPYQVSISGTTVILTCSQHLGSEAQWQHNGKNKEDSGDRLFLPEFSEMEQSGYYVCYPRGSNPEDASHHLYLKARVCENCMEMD
# Sequence (Q95LI8 22-105, chain 2 of 2, further chain): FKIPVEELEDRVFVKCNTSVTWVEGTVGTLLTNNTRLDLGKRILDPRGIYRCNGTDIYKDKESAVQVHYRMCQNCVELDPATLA
# Assay Protocol: SPR, antigen on chip
A collection of binders and their measured Kd
Write the answer as a number in µM, unit excluded.

>  <Binder>
SGN70-sp34.24LH (bispecific antibody, part only; not given: anti-CD70 Fab arm and Fc, not shown: another chain or arm of the molecule; a dimerising Fc or GST; large carriers; small tags and cut ends) scFv: QAVVTQEPSLTVSPGGTVTLTCRSSTGAVTTSNYANWVQQKPGQAPRGLIGGTNKRAPGVPARFSGSLLGDKAALTLLGAQPEDEAEYYCALWYSNLWVFGQGTKLTVLGGGGSGGGGSGGGGSGGGGSEVQLVESGGGLVQPGGSLKLSCAASGFTFNTYAMNWVRQASGKGLEWVGRIRSKYNNYATYYADSVKDRFTISRDDSKSTLYLQMNSLKTEDTAVYYCARHGNFGQSYVSWFAYWGQGTTVTVSS

>  <Kd / µM>
0.141

$$$$

Let us move to another entry and its Kd.
[in] Output measured Kd for this item: SGN70-sp34.80LH (bispecific antibody, part only; not given: anti-CD70 Fab arm and Fc, not shown: another chain or arm of the molecule; a dimerising Fc or GST) scFv: QAVVTQEPSLTVSPGGTVTLTCRSSTGAVTTSNYANWVQQKPGQAPRGLIGGTNKRAPGVPARFSGSLLGDKAALTLLGAQPEDEAEYYCALWYSNLWVFGQGTKLTVLGGGGSGGGGSGGGGSGGGGSEVQLVESGGGLVQPGGSLKLSCAASGFTFNTAAMNWVRQASGKGLEWVGRIRSKYNNYATYYADSVKDRFTISRDDSKSTLYLQMNSLKTEDTAVYYCARHGNFGQSYVSWFAYWGQGTTVTVSS
[out] 6.49
